- Tested on: IL-1β production in PMA-differentiated THP-1 cells
- measurement_description: IL-1β production in PMA-differentiated THP-1 cells stimulated with gramicidin (hTHP-1 assay containing 2% fetal bovine serum)
- Assay type: cell-based, human
- measurement_context: Homo sapiens, THP-1, read-out: hTHP-1 IC50 in 2% FBS, average IC50; hTHP-1 assay containing 2% fetal bovine serum; given as numeric bound
pIC50: −log10 of the molar value.
test_readout: pIC50

Reported pIC50 of CC(C)c1c2c(c3c(c1CC(=O)N=S(N)(=O)c1sc(C(C)(C)O)cc1F)CCC3)COC2 (single isomer, unassigned) [Example 412] : < 4.52
